Origin of values: paper PMC5855801

molecular target: ERα LBD (Homo sapiens, UniProt P03372); construct: ERα LBD (amino acids 302–552) was cloned into the pAN4 AviTag™ Vector; made in house; test: Biolayer interferometry (BLI) direct binding assay; conditions: biotinylated ERα LBD on streptavidin sensor, 3–100 μM
Sequence (P03372 302-552): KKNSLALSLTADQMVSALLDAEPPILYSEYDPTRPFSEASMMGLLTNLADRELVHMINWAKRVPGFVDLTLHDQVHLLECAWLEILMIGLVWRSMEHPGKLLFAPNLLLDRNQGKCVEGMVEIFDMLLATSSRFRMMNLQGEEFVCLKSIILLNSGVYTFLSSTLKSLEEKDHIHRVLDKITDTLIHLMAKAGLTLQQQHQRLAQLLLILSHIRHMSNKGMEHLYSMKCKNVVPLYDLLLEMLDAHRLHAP
READOUT_NAME: Direct binding to ERα LBD (BLI)

{"MOLECULE": "CC(=O)N(/N=C1\\Oc2ccccc2C1=O)c1ccccc1Cl [VPC-16602]", "READOUT_NAME": "Direct binding to ERα LBD (BLI)", "VAL": "abolished"}
{"MOLECULE": "CC(=O)N(/N=C1\\Cc2ccccc2C1=O)c1ccccc1Cl [VPC-16600]", "READOUT_NAME": "Direct binding to ERα LBD (BLI)", "VAL": "abolished"}

====

target: ERα (Homo sapiens, UniProt P03372); construct: endogenous in cells; host or cells: T47DKBluc (ATCC CRL-2865); assay: Estrogen-responsive luciferase reporter transcriptional assay in T47DKBluc cells; format: cell-based; conditions: 1 nM E2, 24 h, read-out: IC50 against ERα in the luciferase reporter-based transcriptional assay
Sequence (P03372 whole entry): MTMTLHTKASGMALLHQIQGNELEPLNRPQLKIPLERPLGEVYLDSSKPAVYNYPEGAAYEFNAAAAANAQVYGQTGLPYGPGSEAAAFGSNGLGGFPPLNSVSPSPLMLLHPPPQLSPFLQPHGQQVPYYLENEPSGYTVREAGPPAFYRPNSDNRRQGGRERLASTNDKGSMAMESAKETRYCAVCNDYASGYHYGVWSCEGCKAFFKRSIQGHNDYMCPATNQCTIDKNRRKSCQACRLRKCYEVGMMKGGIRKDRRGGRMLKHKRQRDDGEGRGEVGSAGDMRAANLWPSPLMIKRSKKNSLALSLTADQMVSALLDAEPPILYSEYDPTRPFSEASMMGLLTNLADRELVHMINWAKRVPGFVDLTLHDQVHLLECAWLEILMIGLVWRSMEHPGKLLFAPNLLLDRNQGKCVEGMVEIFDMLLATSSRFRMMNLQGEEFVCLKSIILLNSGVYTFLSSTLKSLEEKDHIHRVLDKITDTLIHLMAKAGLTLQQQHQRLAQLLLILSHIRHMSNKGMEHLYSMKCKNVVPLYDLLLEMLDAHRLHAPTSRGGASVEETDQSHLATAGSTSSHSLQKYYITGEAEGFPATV
READOUT_NAME: pIC50
Give bare numbers, as −log10 of the molar value.

{"COMPOUND": "CC(=O)N(/N=C1\\Sc2ccccc2C1=O)c1ccccc1Cl [VPC-16464]", "VAL": 5.57}
{"COMPOUND": "CC(=O)N(/N=C1\\Sc2ccccc2C1=O)c1ccc(C)c(C)c1 [compound 16484]", "VAL": 5.01}
{"COMPOUND": "CC(=O)N(/N=C1\\Sc2ccccc2C1=O)c1ccc(C)cc1 [compound 16475]", "VAL": 4.91}
{"COMPOUND": "CC(=O)N(/N=C1\\Sc2ccccc2C1=O)c1cccc(C)c1 [compound 16457]", "VAL": 5.42}

Hey, quick one: what's pIC50 for each of these?
1. CC(=O)N(/N=C1\Sc2ccccc2C1=O)c1ccccc1F [compound 16487]
2. CC(=O)N(/N=C1\Sc2c(C)cccc2C1=O)c1ccccc1Cl [VPC-16606]
3. CC(=O)N(/N=C1\Sc2c(F)cccc2C1=O)c1ccccc1Cl [VPC-16607]

A)
1: 5.33; 2: 6.52; 3: 5.54
